# Tested On: TRPM6 (Homo sapiens)
# Sequence (Q9BX84 whole entry): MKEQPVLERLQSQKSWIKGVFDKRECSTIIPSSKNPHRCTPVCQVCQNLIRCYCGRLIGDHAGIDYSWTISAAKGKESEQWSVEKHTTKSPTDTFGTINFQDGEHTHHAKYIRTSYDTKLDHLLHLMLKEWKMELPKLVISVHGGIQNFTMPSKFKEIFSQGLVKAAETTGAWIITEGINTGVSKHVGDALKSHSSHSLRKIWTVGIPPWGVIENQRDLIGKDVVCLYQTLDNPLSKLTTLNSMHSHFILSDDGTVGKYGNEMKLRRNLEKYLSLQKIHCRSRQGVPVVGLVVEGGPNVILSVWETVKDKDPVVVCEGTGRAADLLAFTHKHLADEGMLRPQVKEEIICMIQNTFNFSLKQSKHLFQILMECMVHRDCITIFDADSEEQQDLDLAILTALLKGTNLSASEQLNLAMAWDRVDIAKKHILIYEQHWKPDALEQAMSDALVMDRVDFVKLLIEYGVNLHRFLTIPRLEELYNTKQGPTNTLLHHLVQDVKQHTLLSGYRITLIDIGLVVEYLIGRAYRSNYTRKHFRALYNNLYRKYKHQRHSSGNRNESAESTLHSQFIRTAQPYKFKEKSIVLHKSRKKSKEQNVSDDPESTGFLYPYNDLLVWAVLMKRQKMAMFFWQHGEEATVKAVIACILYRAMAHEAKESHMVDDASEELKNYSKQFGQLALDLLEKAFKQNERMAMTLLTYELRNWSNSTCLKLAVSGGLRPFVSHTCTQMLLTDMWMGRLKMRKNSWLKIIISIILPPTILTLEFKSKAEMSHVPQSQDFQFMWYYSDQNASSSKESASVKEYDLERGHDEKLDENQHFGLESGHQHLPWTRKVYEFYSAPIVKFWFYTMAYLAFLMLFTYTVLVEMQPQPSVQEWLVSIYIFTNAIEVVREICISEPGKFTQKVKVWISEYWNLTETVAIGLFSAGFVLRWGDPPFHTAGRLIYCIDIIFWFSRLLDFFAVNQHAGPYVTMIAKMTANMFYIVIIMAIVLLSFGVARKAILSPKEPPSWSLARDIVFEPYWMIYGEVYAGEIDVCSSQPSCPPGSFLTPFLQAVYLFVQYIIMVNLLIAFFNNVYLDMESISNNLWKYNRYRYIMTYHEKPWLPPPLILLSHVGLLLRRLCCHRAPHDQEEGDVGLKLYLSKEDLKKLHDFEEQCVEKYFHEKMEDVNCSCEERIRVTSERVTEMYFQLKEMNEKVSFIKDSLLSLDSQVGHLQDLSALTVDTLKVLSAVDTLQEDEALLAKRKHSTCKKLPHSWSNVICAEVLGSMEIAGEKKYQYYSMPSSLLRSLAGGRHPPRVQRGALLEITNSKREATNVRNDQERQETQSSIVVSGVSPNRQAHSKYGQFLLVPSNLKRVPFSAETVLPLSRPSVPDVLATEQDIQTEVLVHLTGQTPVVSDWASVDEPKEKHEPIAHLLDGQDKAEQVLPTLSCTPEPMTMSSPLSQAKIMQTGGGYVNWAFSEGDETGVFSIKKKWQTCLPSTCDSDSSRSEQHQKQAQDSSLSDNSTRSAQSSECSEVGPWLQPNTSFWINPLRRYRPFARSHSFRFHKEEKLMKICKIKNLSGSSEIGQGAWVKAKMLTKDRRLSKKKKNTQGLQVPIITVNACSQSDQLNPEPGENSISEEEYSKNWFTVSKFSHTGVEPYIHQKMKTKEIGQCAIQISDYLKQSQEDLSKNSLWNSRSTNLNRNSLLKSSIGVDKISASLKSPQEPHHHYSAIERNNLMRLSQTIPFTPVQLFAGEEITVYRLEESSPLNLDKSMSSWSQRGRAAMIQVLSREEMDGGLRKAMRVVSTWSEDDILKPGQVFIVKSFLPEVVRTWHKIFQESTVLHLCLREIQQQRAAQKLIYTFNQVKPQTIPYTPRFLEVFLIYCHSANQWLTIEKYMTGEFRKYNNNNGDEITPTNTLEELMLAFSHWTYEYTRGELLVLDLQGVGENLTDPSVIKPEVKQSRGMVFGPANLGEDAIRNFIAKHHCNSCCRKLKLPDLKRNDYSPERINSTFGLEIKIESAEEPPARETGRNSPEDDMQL
# Test Protocol: whole-cell patch clamp, outward current, CHO-K1
Property Label: pEC50
The meaning of pEC50 here: minus log10 of the concentration in molar units.

Bench note, TRPM6 (Homo sapiens): entry NCCOB(c1ccccc1)c1ccccc1 [2-APB] , its pEC50 = 3.69

###

# Tested On: TRPM7 (Mus musculus)
# Sequence (Q923J1 whole entry): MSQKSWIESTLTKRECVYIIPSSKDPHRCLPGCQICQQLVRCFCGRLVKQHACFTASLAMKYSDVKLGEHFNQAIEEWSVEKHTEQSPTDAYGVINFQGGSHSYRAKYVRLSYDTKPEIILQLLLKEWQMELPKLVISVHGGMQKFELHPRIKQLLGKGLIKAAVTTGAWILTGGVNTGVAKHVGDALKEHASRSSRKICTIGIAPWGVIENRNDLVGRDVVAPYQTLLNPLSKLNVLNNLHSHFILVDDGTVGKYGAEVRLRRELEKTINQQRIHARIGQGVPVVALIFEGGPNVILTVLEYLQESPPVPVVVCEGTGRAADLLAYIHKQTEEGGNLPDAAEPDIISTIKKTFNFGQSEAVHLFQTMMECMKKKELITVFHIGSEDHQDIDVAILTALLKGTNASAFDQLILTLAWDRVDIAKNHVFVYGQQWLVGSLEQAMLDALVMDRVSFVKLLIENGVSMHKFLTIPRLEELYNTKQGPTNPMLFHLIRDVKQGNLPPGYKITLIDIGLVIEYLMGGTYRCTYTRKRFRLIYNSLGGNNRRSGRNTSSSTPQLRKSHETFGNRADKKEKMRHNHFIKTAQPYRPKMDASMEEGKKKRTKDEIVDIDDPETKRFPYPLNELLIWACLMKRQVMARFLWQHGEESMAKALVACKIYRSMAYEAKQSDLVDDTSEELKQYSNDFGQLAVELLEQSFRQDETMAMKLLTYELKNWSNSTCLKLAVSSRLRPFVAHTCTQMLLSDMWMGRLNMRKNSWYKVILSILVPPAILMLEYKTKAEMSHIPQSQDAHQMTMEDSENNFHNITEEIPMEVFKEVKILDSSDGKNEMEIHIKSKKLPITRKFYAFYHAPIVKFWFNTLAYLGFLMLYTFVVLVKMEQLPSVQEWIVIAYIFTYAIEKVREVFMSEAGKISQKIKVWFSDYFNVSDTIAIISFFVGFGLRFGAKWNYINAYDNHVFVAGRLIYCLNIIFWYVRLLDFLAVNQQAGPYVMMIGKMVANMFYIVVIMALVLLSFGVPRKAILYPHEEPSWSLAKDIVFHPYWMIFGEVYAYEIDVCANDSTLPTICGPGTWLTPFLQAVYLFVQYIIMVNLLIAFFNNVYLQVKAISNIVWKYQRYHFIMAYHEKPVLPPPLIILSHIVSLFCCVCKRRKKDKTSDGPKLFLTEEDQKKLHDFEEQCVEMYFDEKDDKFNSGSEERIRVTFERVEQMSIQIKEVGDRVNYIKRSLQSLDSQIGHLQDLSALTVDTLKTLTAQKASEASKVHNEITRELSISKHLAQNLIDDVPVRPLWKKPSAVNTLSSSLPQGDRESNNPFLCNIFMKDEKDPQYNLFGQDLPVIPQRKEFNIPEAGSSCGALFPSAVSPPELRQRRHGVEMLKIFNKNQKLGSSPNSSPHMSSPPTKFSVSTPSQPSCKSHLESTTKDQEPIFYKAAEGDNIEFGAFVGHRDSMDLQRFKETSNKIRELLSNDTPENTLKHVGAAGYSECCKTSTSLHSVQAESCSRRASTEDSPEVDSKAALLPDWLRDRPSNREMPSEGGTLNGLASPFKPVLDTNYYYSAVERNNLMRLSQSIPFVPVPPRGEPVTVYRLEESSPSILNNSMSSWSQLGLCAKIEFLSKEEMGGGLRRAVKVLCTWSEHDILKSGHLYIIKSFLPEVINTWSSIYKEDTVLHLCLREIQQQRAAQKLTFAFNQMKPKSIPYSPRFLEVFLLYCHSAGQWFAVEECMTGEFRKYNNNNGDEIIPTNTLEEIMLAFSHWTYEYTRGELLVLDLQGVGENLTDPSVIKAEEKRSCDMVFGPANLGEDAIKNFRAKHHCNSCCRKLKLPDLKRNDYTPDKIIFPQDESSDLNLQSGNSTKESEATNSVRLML
# Test Protocol: whole-cell patch clamp, outward current, CHO-K1
Property Label: IC50 (µM)
# value in µM; strip the unit string

Response field IC50 (TRPM7 (Mus musculus)) for item NCCOB(c1ccccc1)c1ccccc1 [2-APB] : 178

###

# Tested On: TRPM6/7 (Homo sapiens; Mus musculus, UniProt Q923J1+Q9BX84)
# Sequence (Q9BX84 whole entry, one chain of several): as the sequence (Q9BX84 whole entry) above
# Test Protocol: whole-cell patch clamp, outward current, CHO-K1
Property Label: EC50 (µM)
Record the value in µM, omitting the unit from your answer.

Readout EC50 for NCCOB(c1ccccc1)c1ccccc1 [2-APB] , test system TRPM6/7 (Homo sapiens; Mus musculus, UniProt Q923J1+Q9BX84), was 1600
